Measured values drawn from patent US12649727B2 for this set.

What GI50 was measured for each of the following?
ASSAYED_SYSTEM: Ba/F3 EGFR-D770-N771ins_SVD (Homo sapiens, UniProt P00533, DUP768-770, cells depend on it)
Sequence (P00533 with tags, fused parts or gaps DUP768-770): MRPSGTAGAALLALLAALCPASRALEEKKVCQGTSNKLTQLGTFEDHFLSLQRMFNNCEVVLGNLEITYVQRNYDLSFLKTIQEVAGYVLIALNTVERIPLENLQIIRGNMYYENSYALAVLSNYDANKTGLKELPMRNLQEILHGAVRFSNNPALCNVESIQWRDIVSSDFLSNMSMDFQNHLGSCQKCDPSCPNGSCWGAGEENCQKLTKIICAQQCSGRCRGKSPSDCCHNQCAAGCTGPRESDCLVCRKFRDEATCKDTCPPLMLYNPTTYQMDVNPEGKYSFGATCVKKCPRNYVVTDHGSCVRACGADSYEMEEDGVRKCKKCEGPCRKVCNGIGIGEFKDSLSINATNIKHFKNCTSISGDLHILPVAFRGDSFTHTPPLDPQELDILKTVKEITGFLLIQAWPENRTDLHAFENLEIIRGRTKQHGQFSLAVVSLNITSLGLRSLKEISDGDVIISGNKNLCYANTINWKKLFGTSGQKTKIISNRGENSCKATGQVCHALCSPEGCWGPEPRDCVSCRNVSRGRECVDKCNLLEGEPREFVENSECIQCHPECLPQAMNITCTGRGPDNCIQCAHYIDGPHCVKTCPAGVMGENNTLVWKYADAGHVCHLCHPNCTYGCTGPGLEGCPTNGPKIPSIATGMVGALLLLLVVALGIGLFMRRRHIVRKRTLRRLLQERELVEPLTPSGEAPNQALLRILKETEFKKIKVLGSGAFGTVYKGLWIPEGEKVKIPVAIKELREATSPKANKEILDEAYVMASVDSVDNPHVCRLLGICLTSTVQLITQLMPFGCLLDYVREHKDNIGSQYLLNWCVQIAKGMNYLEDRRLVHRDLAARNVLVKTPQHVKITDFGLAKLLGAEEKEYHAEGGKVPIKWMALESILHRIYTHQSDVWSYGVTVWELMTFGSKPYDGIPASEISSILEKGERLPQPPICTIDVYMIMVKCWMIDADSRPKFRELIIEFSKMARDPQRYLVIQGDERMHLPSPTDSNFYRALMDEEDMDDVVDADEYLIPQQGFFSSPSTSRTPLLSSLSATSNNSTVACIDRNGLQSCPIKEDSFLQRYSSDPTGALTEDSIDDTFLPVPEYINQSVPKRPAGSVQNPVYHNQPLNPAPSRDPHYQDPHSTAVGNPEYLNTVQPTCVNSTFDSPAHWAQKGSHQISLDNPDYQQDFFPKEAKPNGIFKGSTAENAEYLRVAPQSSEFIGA
MEASUREMENT_NOTES: Proliferation experiment of Ba/F3 cell line, EGFR-D770-N771ins_SVD (CellTiter-Glo)
Assay type: cell-based
TEST_PARAMETERS: cultured for 72 hrs with compound, CTG analysis, read-out: Ba/F3 EGFR-D770-N771ins_SVD IC50

Solved entries (count: 2):
Quick one: GI50 of "C=CC(=O)Nc1cc2c(Nc3ccnc(-c4ccccc4F)c3)ncnc2cc1OCCCN1CCN(CC)CC1" ?
1.9 nM

What do you have for "C=CC(=O)Nc1cc2c(Nc3cncc(-c4ccccc4F)c3)ncnc2cc1OCCN1CCOCC1" ?
10.8 nM

Below are some compounds; for each one, tell me its GI50.
1. C=CC(=O)Nc1cc2c(Nc3cncc(-c4c(F)cccc4F)c3)ncnc2cc1O[C@@H]1CCN(C)C1
2. C=CC(=O)Nc1cc2c(Nc3ccnc(-c4ccccc4F)c3)ncnc2cc1OCC
3. C=CC(=O)Nc1cc2c(Nc3cccc(-c4c(F)cccc4F)c3)ncnc2cc1OCCCN1CCN(CC(F)(F)F)CC1
4. C=C(F)C(=O)Nc1cc2c(Nc3ccnc(-c4ccccc4F)c3)ncnc2cc1N1CC(F)(F)C1
5. C=CC(=O)Nc1cc2c(Nc3cccc(-c4ccccc4F)c3)ncnc2cc1OCCCN1CCOCC1
6. C=CC(=O)Nc1cc2c(Nc3ccc(F)c(-c4ccc(F)cc4)c3)ncnc2cc1OCCCN1CCOCC1
7. C=CC(=O)Nc1cc2c(Nc3ccnc(-c4c(F)cccc4F)c3)ncnc2cc1OCCCN1CCN(C)CC1

1: 34.5 nM; 2: 3.3 nM; 3: 68.2 nM; 4: 18.3 nM; 5: 17 nM; 6: 19.2 nM; 7: 3.5 nM

Please give GI50 for each item listed below.
1. C=CC(=O)Nc1cc2c(Nc3ccnc(-c4ccccc4F)c3)ncnc2cc1O[C@@H]1CCN(C2CC2)C1
2. C=CC(=O)Nc1cc2c(Nc3cncc(-c4ccccc4F)c3)ncnc2cc1OCCCN1CCOCC1
3. C=CC(=O)Nc1cc2c(Nc3cncc(-c4ccccc4F)c3)ncnc2cc1OCCCN1CCN(C)CC1
4. C=CC(=O)Nc1cc2c(Nc3cccc(-n4cccn4)c3)ncnc2cc1OCCCN1CCOCC1
5. C=CC(=O)Nc1cc2c(Nc3cccc(-c4ccc(F)cc4F)c3)ncnc2cc1OCCCN1CCOCC1

1: 3.9 nM; 2: 5.1 nM; 3: 4.2 nM; 4: 10.4 nM; 5: 11.8 nM

For every record below, what is its GI50?
1. C=CC(=O)Nc1cc2c(Nc3ccnc(-c4ccccc4F)c3)ncnc2cc1O[C@@H]1CCN(C)C1
2. C=CC(=O)Nc1cc2c(Nc3ccnc(-c4ccccc4F)c3)ncnc2cc1OCCCN1CCOCC1

1. 4.1 nM
2. 3.4 nM

* * *

ASSAYED_SYSTEM: Ba/F3 EGFR-V769_D770insASV (Homo sapiens, UniProt P00533, DUP767-769, cells depend on it)
Sequence (P00533 with tags, fused parts or gaps DUP767-769): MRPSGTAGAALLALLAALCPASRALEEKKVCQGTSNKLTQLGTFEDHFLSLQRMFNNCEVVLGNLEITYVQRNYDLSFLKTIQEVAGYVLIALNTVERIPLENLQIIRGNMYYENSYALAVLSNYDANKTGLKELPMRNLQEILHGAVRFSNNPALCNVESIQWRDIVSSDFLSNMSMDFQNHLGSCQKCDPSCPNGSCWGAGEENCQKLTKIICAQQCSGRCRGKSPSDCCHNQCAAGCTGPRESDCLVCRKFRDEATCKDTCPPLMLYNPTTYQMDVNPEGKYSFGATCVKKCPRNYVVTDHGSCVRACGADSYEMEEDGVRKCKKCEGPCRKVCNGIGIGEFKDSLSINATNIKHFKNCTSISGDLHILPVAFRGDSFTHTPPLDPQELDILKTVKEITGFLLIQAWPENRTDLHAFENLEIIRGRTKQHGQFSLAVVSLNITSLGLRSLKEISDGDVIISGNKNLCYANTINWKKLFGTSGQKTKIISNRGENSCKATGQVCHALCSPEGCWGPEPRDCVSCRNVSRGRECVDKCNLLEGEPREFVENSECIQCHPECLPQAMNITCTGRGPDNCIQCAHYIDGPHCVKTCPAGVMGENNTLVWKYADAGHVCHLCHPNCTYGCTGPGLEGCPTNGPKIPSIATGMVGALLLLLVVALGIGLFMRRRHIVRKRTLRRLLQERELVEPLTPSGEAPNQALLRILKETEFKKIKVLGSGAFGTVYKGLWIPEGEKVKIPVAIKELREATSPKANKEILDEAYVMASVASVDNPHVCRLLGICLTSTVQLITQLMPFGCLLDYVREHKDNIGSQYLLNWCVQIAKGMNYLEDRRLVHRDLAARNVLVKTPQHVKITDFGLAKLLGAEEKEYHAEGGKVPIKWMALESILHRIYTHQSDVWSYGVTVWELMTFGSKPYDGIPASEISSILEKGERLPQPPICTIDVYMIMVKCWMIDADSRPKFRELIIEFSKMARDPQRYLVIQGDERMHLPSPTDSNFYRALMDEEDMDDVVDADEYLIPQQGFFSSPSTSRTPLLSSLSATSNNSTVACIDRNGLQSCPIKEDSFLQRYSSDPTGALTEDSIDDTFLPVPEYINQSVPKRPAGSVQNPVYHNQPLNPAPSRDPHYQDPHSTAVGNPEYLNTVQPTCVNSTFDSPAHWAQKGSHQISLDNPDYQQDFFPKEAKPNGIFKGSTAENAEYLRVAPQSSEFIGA
MEASUREMENT_NOTES: Proliferation experiment of Ba/F3 cell line, EGFR-V769_D770insASV (CellTiter-Glo)
Format: cell-based
TEST_PARAMETERS: cultured for 72 hrs with compound, CTG analysis, read-out: Ba/F3 EGFR-V769_D770insASV IC50
Assign log10(GI50) to each entry below.
log10 GI50, nM

Consider the reported log10(GI50) for these compounds:
Need log10(GI50) of "C=CC(=O)Nc1cc2c(Nc3ccc(F)c(-c4ccc(F)cc4)c3)ncnc2cc1OCCCN1CCOCC1" , thanks.
1.56

Try this compound next: "C=CC(=O)Nc1cc2c(Nc3cccc(-c4ccc(F)cc4F)c3)ncnc2cc1OCCCN1CCC(F)(F)C1"
2.14

Try this compound next: "C=CC(=O)Nc1cc2c(Nc3ccnc(-c4ccccc4F)c3)ncnc2cc1O[C@@H]1CCN(C2CN(C)C2)C1"
0.88

For each of the compounds below, state log10(GI50).
1. C=CC(=O)Nc1cc2c(Nc3cccc(-c4c(F)cc(F)cc4F)c3)ncnc2cc1OCCCN1CCOCC1
2. C=CC(=O)Nc1cc2c(Nc3cccc(-c4ccc(F)cc4F)c3)ncnc2cc1O[C@@H]1CCN(C)C1

[2.03, 2.25]

For every record below, what is its log10(GI50)?
1. C=CC(=O)Nc1cc2c(Nc3cccc(-c4c(F)cccc4F)c3)ncnc2cc1OCCCN1CCN(CC)CC1
2. C=CC(=O)Nc1cc2c(Nc3cccc(-n4cccn4)c3)ncnc2cc1OCCCN1CCOCC1
3. C=C(F)C(=O)Nc1cc2c(Nc3ccnc(-c4ccccc4F)c3)ncnc2cc1OCCOC

1.32
1.25
1.11

Fill in log10(GI50) for each of the 5 compounds listed.
1. C=C(F)C(=O)Nc1cc2c(Nc3ccnc(-c4ccccc4F)c3)ncnc2cc1OCC
2. C=CC(=O)Nc1cc2c(Nc3ccc(F)c(-c4ccccn4)c3)ncnc2cc1OCCCN1CCN(C)CC1
3. C=CC(=O)Nc1cc2c(Nc3cccc(-c4c(F)cccc4F)c3)ncnc2cc1O[C@@H]1CCN(C)C1
4. C=C(F)C(=O)Nc1cc2c(Nc3ccnc(-c4ccccc4F)c3)ncnc2cc1N1CCC(F)(F)CC1
5. C=CC(=O)Nc1cc2c(Nc3cccc(-c4ccc(F)cc4F)c3)ncnc2cc1OCCN1CCC(F)(F)C1

1. 1.03
2. 1.58
3. 1.68
4. 1.72
5. 2.25

Report log10(GI50) for every entry below.
1. C=CC(=O)Nc1cc2c(Nc3ccnc(-c4ccccc4F)c3)ncnc2cc1O[C@@H]1CCN(C2CCOCC2)C1
2. C=CC(=O)Nc1cc2c(Nc3ccnc(-c4ccccc4F)c3)ncnc2cc1N1CCC(N2CCOCC2)CC1

0.46
0.80
